biological target: BCL-XL (Homo sapiens, UniProt Q07817); construct: BCL-XL degradation results in MOLT-4 cells for compounds of the invention; endogenous in cells; host or cells: MOLT-4; test: BCL-XL degradation assay in MOLT-4 cells (ELISA, 6 h); format: cell-based; conditions: read-out: Bcl-xL ELISA in MOLT-4 degradation 6 h: External Abs-DC50
Sequence (Q07817 whole entry): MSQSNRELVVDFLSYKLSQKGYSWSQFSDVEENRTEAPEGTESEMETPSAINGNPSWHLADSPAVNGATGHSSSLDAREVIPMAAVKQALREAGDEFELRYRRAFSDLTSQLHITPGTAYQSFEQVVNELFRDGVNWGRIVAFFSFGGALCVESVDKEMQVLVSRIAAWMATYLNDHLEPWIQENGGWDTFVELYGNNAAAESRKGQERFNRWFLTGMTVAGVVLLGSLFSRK
Recorded measurements of DC50, one per entry
measure: DC50

INSERT INTO assay_data (compound, system, observed_measurement) VALUES
  ('C#Cc1ccc([C@H](CO)NC(=O)[C@@H]2C[C@@H](O)CN2C(=O)[C@@H](NC(=O)CCCCCC(=O)N2CCN(CC[C@H](CSc3ccccc3)Nc3ccc(S(=O)(=O)NC(=O)c4ccc(N5CCN([C@@H](O)c6ccccc6-c6ccc(Cl)cc6)CC5)cc4)cc3S(=O)(=O)C(F)(F)F)CC2)C(C)(C)C)cc1 [I-135]', 'BCL-XL (Homo sapiens, UniProt Q07817)', '0.01 to 0.1 µM'),
  ('Cc1ncsc1-c1ccc([C@H](C)NC(=O)[C@@H]2C[C@@H](O)CN2C(=O)[C@@H](NC(=O)CCCCCC(=O)N2CCN(CC[C@H](CSc3ccccc3)Nc3ccc(S(=O)(=O)NC(=O)c4ccc(NC5CCOCC5)cc4)cc3S(=O)(=O)C(F)(F)F)CC2)C(C)(C)C)cc1 [I-39]', 'BCL-XL (Homo sapiens, UniProt Q07817)', '0.1 to 0.5 µM'),
  ('Cc1ncsc1-c1ccc([C@H](C)NC(=O)[C@@H]2C[C@@H](O)CN2C(=O)[C@@H](NC(=O)CCCCCC(=O)N2CCN(CC[C@H](CSc3ccccc3)Nc3ccc(S(=O)(=O)NC(=O)c4ccc(N5CCN(CC6=C(c7ccc(Cl)cc7)CC(C)(C)CC6)CC5)cc4)cc3S(=O)(=O)C(F)(F)F)CC2)C(C)(C)C)cc1 [I-42]', 'BCL-XL (Homo sapiens, UniProt Q07817)', '0.01 to 0.1 µM');
